- Test system: Zika virus NS2B-NS3 protease (linked construct)
- Assay notes: Primary screen NINDS Rhodamine qHTS for Zika virus inhibitors (AID 1347160); also: nearly all actives have a fitted effect of over 55% in size
- Study conditions: purified NS2B-NS3 protease, Rhodamine110 substrate fluorescence; series mostly up to 57.1 µM
- Description: Avindra Nath, Ph.D., National Institute of Neurological Disorders and Stroke (NINDS), Bethesda, MD Radhakrishnan Padmanabhan, Ph.D., Georgetown University (GU), Washington D.C. Zika Virus causes congenital defects, including microcephaly and is associated with Guillain-Barre syndrome, eningoencephalitis and myelitis in infected adult. […]
Inconclusive results are not listed. The source made the active and inactive calls. Calls follow the shape of the dose curve; as a rule, active = well fitted inhibition curve with a large enough effect; inconclusive = small, poorly fitted or top-dose-only effect; inactive = no such curve, though single readings can be large or run the other way.
Hello, when you answer, please use one of the following outcomes: T for active, F for inactive

(Q) Hi, sorry to bother you, what did the test record for `Cc1ncc(CCCN(C)C)cc1Nc1ncc2c(n1)-c1ccc(C(F)(F)F)cc1NC(=S)C2` ?
(A) F

(Q) Hi, sorry to bother you, what did the test record for `Nc1nc2c(ncn2[C@@H]2O[C@@H]3COP(=O)(O)O[C@H]3[C@H]2O)c(=O)[nH]1` ?
(A) F

(Q) Hi, sorry to bother you, what did the test record for N#CC(c1ccnc(OCc2ccc(CN3CCOCC3)cc2)n1)c1nc2ccccc2s1 (stereo not drawn) ?
(A) T

(Q) Hi, sorry to bother you, what did the test record for `CCS(=O)(=O)N1CCN(c2ccc(Nc3ncc(C(N)=O)c(NC4CC4)n3)cc2)CC1` ?
(A) F

(Q) Hi, sorry to bother you, what did the test record for CCOC(=O)C(CCc1ccccc1)NC(C)C(=O)N1C(=O)N(C)CC1C(=O)O (stereo not drawn) ?
(A) F

(Q) Hi, sorry to bother you, what did the test record for CC(C)C(C#N)O[C@@H]1O[C@H](CO[C@@H]2O[C@@H](C)[C@H](O)[C@@H](O)[C@H]2O)[C@@H](O)[C@H](O)[C@H]1O (stereo partly drawn) ?
(A) F

---
(Q) Hi, sorry to bother you, what did the test record for C=C(C)C1CCC2(C(=O)O[C@@H]3O[C@H](CO[C@@H]4O[C@H](CO)[C@@H](O)[C@H](O)[C@H]4O)[C@@H](O)[C@H](O[C@@H]4O[C@@H](C)[C@H](O)[C@@H](O)[C@H]4O)[C@H]3O)CCC3(C(=O)O)C(CCC4C5(C)CCC(O)C(C)(C)C5CCC43C)C12 (stereo partly drawn) ?
(A) F

(Q) Hi, sorry to bother you, what did the test record for `C/C1=C\CCC2=C[C@@H](OC2=O)c2c(C)coc2C1` ?
(A) F

---

- System: Zika virus NS2B-NS3 protease (unlinked complex)
- Assay notes: Primary screen GU Rhodamine qHTS for Zika virus inhibitors: Unlinked NS2B-NS3 protease assay (AID 1347159); also: nearly all actives have a fitted effect of over 60% in size
- Study conditions: Recombinant ZIKV NS2B-NS3 protease, Rhodamine110 substrate fluorescence; series mostly up to 107 µM
- Source text: Avindra Nath, Ph.D., National Institute of Neurological Disorders and Stroke (NINDS), Bethesda, MD Radhakrishnan Padmanabhan, Ph.D., Georgetown University (GU), Washington D.C. Zika Virus causes congenital defects, including microcephaly and is associated with Guillain-Barre syndrome, eningoencephalitis and myelitis in infected adult. […]
Results filed as inconclusive are left out. Active and inactive are the calls of the source. The call rests on the fitted dose curve; in most records, active means well fitted inhibition curve with a large enough effect; inconclusive means small, poorly fitted or top-dose-only effect; inactive means no such curve, though single readings can be large or run the other way.
Hello, when you answer, please use one of the following outcomes: active, inactive

(Q) Hi, sorry to bother you, what did the test record for C=C1CCC2C(C(C)(C)O)CCC2(C)CC(O)C(=C)CCC1O (stereo unspecified) ?
(A) inactive

---
(Q) Hi, sorry to bother you, what did the test record for COc1cc(C(=O)O)ccc1OC1OC(CO)C(O)C(O)C1O (stereo unspecified) ?
(A) inactive

(Q) Hi, sorry to bother you, what did the test record for `COc1ccc(-n2[nH]c(=O)c3[nH]c4cc(Cl)ccc4c(=O)c3c2=O)c(C)c1` ?
(A) active

(Q) Hi, sorry to bother you, what did the test record for C/C(=C\CCC1(C)C2CCC(C2)C1(C)O)C(=O)O (stereo unspecified) ?
(A) active

(Q) Hi, sorry to bother you, what did the test record for CC(C)c1c2cc(-c3ccnc(NC4CCC(NC5CCOCC5)CC4)n3)ccc2nn1C (stereo unspecified) ?
(A) inactive

(Q) Hi, sorry to bother you, what did the test record for `COc1nc2sc(C(=O)NC3CC3)c(N)c2c(C)c1Cl` ?
(A) inactive
